test system: Galium (catchweed bedstraw, Galium aparine); assay: Test A postemergence; type: in vivo; details: Galium, post-emergence, 240 h, 125 g ai/ha, postemergence; visual injury on 0 to 100 scale (0 no effect, 100 complete control), approx. 10 d; read-out: Galium plant response rating
Readout type: pest or weed control at 125 g/ha
Record the result as a number with its unit.

[in] Please give the measured pest or weed control at 125 g/ha for this molecule: C=C(C)c1ccc([C@H]2CN(C)C(=O)[C@@H]2C(=O)Nc2cccc(F)c2C)cc1 [Compound 1150]
[out] 20%

[in] Please give the measured pest or weed control at 125 g/ha for this molecule: CC(C)COc1cccc([C@H]2CN(C)C(=O)[C@@H]2C(=O)Nc2ccc(F)cc2F)c1 [Compound 1030]
[out] 40%

[in] Please give the measured pest or weed control at 125 g/ha for this molecule: COc1cccc([C@H]2CN(C)C(=O)[C@@H]2C(=O)Nc2ccc(F)c(F)c2F)c1 [Compound 1063]
[out] 50%

[in] Please give the measured pest or weed control at 125 g/ha for this molecule: CCc1cc(CC)cc([C@H]2CNC(=O)[C@@H]2C(=O)Nc2ccccc2F)c1 [Compound 1138]
[out] 20%

[in] Please give the measured pest or weed control at 125 g/ha for this molecule: Cc1ccc([C@H]2CNC(=O)[C@@H]2C(=O)Nc2cccc(F)c2C)cc1C [Compound 1035]
[out] 20%

[in] Please give the measured pest or weed control at 125 g/ha for this molecule: CN1C[C@H](c2ccc(C(F)(F)F)nc2)[C@@](C)(C(=O)Nc2ccc(F)c(F)c2F)C1=O [Compound 1110]
[out] 50%

[in] Please give the measured pest or weed control at 125 g/ha for this molecule: CN1C[C@H](c2csc(C(F)F)c2)[C@@H](C(=O)Nc2cccc(F)c2F)C1=O [Compound 1122]
[out] 50%

[in] Please give the measured pest or weed control at 125 g/ha for this molecule: CN1C[C@H](c2csc(C(F)F)c2)[C@@H](C(=O)Nc2ccccc2F)C1=O [Compound 1123]
[out] 40%

[in] Please give the measured pest or weed control at 125 g/ha for this molecule: CN1CC(c2cccc(O)c2)C(C(=O)Nc2cccc(F)c2F)C1=O (stereo not drawn) [Compound 1130]
[out] 0%

###

tested on: rice (Oryra sativa); assay: Test B flooded paddy test; assay type: in vivo; details: Oryza sativa, Flood, 250 g ai/ha; scale of 0 to 100 where 0 is no effect and 100 is complete control; read-out: Rice plant response rating
Would you mind telling me the reported pest or weed control at 250 g/ha of each entry?
Record the result as a number with its unit.

[in] Please give the measured pest or weed control at 250 g/ha for this compound: CN1CC[C@H](c2cccc(OC(F)(F)F)c2)[C@@H](C(=O)Nc2cccc(F)c2F)C1=O
[out] 0%

[in] Please give the measured pest or weed control at 250 g/ha for this compound: N#Cc1cccc(NC(=O)[C@H]2C(=O)NC[C@@H]2c2cccc(C(F)(F)F)c2)c1F
[out] 0%

[in] Please give the measured pest or weed control at 250 g/ha for this compound: CN1C[C@H](c2ccc3c(c2)CCC3)[C@@H](C(=O)Nc2ccccc2F)C1=O
[out] 0%

[in] Please give the measured pest or weed control at 250 g/ha for this compound: CN1C[C@H](c2cc(F)c(C(F)(F)F)c(F)c2)[C@@H](C(=O)Nc2ccc(F)cc2F)C1=O
[out] 0%

[in] Please give the measured pest or weed control at 250 g/ha for this compound: CN1C[C@H](c2cc(F)cc(F)c2)[C@@H](C(=O)Nc2ncccc2F)C1=O
[out] 0%

[in] Please give the measured pest or weed control at 250 g/ha for this compound: Cc1cc([C@H]2CNC(=O)[C@@H]2C(=O)Nc2ccc(F)cc2F)ccc1F
[out] 0%

[in] Please give the measured pest or weed control at 250 g/ha for this compound: CN1C[C@H](c2ccc3c(c2)CCC3)[C@@H](C(=O)Nc2cccc(F)c2F)C1=O
[out] 20%

[in] Please give the measured pest or weed control at 250 g/ha for this compound: CSc1ccccc1NC(=O)[C@H]1C(=O)N(C)C[C@@H]1c1ccc(C(F)F)cc1
[out] 30%

[in] Please give the measured pest or weed control at 250 g/ha for this compound: Cc1cc([C@H]2CN(C)C(=O)[C@@H]2C(=O)Nc2ccc(F)c(F)c2F)ccc1F
[out] 0%

[in] Please give the measured pest or weed control at 250 g/ha for this compound: Cc1cc([C@H]2CN(C)C(=O)[C@@H]2C(=O)Nc2ccc(F)cc2F)ccc1Cl
[out] 0%

[in] Please give the measured pest or weed control at 250 g/ha for this compound: CN1C[C@H](c2cccc(COC(F)F)c2)[C@@H](C(=O)Nc2ccccc2F)C1=O
[out] 0%

[in] Please give the measured pest or weed control at 250 g/ha for this compound: Cc1cc(F)ccc1NC(=O)[C@H]1C(=O)N(C)C[C@@H]1c1ccc(C(F)(F)F)cc1
[out] 0%

[in] Please give the measured pest or weed control at 250 g/ha for this compound: CSc1ccccc1NC(=O)[C@H]1C(=O)N(C)C[C@@H]1c1cc(C)c(C)c(C)c1
[out] 40%

[in] Please give the measured pest or weed control at 250 g/ha for this compound: COc1cc([C@H]2CN(C)C(=O)[C@@H]2C(=O)Nc2cccc(F)c2F)ccc1C(F)(F)F
[out] 0%

[in] Please give the measured pest or weed control at 250 g/ha for this compound: CCOc1ccc([C@H]2CNC(=O)[C@@H]2C(=O)Nc2ccc(F)cc2F)cc1
[out] 0%

[in] Please give the measured pest or weed control at 250 g/ha for this compound: Cc1c(F)cccc1NC(=O)[C@H]1C(=O)N(C)C[C@@H]1c1cccc(COC(F)F)c1
[out] 0%

[in] Please give the measured pest or weed control at 250 g/ha for this compound: COc1ccc([C@H]2CN(C)C(=O)[C@@H]2C(=O)Nc2ccccc2SC)cc1OC
[out] 0%

[in] Please give the measured pest or weed control at 250 g/ha for this compound: CN1C[C@H](c2cccc(C3CC3)c2)[C@@H](C(=O)Nc2ccccc2S(C)(=O)=O)C1=O
[out] 0%

[in] Please give the measured pest or weed control at 250 g/ha for this compound: CS(=O)(=O)c1ccccc1NC(=O)[C@H]1C(=O)NC[C@@H]1c1cc(F)c(C(F)(F)F)c(F)c1
[out] 0%

[in] Please give the measured pest or weed control at 250 g/ha for this compound: C/C=C/C1CNC(=O)C1C(=O)Nc1cccc(F)c1F (centres unmarked)
[out] 0%
